Hi there, I'd appreciate the recorded inhibition for every entry that follows.
- test description: inhibitors of TNFa-induced NFkB p65 translocation, primary screen, imaging, HUVEC, MLSMR starter and 10KST1 sets (AID 438);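 also: compound added about 3h40 before a 20 min TNFalpha stimulation; signal is the nuclear over cytoplasmic p65 intensity ratio per well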
- settings: HUVEC TNFa-induced p65 nuclear translocation; at 2 µM, hits give high values, 0% TNFa-plus-vehicle, 100% no-TNFa wells
Give bare numbers, in %.

molecule	unit descriptor	inhibition
O=C(NCCN1CCCCCC1)c1ccc(N2CCCC2=O)cc1	%	-4.7
COC(=O)c1ccc(C2C(C#N)=C(N)Oc3cc(C)n(C)c(=O)c32)cc1 (centres undefined)	%	-11.1
O=C(CCn1[nH]c(=O)c2ccccc2c1=O)NCCO	%	-6.5
CN(C)CCNc1oc(-c2ccccc2F)nc1C#N	%	7.1
COC(=O)Cc1cc(=O)n(-c2ccccc2)[nH]1	%	3.1
O=C(Nc1cccc(F)c1)c1ccc2c(c1)OCO2	%	-2.1

Okay, here is my list. What is inhibition for each of these?
1. O=C(O)Cc1ccccc1C(=O)O
2. O=C(CNCCC1=CCCCC1)Nc1ccccc1N1CCCCC1
3. COc1ccc(CCn2c(-c3ccco3)nc3ccccc3c2=O)cc1OC
4. O=C(Cn1nnc(-c2cccs2)n1)OC1CCCCC1
5. CCOC(=O)c1c(C)oc2ccc(NS(=O)(=O)c3ccc4c5c(cccc35)C(=O)N4)cc12
6. CCn1c(SCC(=O)N2CCN(c3ccc(Cl)cc3)CC2)nc2ccccc2c1=O
7. Cc1cc(NCCN2CCOCC2)n2nc(C)c(-c3ccccc3)c2n1
8. CC1(C)NC(=O)N(CC(O)CN(Cc2ccccc2)Cc2ccccc2)C1=O (centres undefined)

Data returned:
1: -0.4; 2: -56.1; 3: -0.6; 4: -4.7; 5: 6.5; 6: 8.1; 7: -8.9; 8: 9.2
